Study target: RORγ-LBD (Homo sapiens)
Construct: HIS-tagged RORγ-LBD was recombinantly expressed in SF9 cells; made in house; host or cells: SF9 cells (baculovirus); unpurified lysate
Sequence (P51449 269-508 limits assumed): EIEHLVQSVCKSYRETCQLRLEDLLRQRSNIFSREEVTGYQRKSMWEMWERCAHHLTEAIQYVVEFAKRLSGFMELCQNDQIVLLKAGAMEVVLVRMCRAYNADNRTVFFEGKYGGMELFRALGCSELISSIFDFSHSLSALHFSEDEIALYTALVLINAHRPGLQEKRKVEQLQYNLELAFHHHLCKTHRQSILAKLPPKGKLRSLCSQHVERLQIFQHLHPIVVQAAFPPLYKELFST
Protocol summary: RORγ-Ligand Binding Domain TR-FRET Assay
Format: biochemical
Experimental setup: benzoxazines, Table 9
Value kind: IC50

Answered cases to consult:
[[record]]
compound = "O=C(Nc1ccc2c(c1)N(S(=O)(=O)c1ccc(F)cc1)C[C@H](CO)O2)c1c(F)cccc1Cl [VI-120]"
study_target = "RORγ-LBD (Homo sapiens)"
result = "< 15 µM"

[[record]]
compound = "CC1(C)CN(S(=O)(=O)c2ccc(F)cc2)c2cc(NC(=O)c3c(Cl)cccc3Cl)ccc2O1 [VI-125]"
study_target = "RORγ-LBD (Homo sapiens)"
result = "< 15 µM"

[[record]]
compound = "COCC1CN(S(=O)(=O)c2cccc(C#N)c2)c2cc(NC(=O)c3c(F)cccc3F)ccc2O1 (stereo not drawn) [VI-103]"
study_target = "RORγ-LBD (Homo sapiens)"
result = "< 15 µM"


Now take the following compound into account.
Please give the measured IC50 for this compound: O=C(Nc1ccc2c(c1)N(S(=O)(=O)c1ccc(F)cc1)CCO2)c1c(F)cccc1Cl [Compound 17]
> 15 µM

Source listed as patent US9512111B2.
